FYI, the data here is from patent US6914045B2.

System: Enterococcus sp.
Experiment Notes: in vitro antibacterial evaluation, MIC by broth dilution
Type: cell-based
Assay Context: Enterococcus faecalis (GC 4554); broth dilution, 18 hours at 35° C.
From the text: Methods for in vitro Antibacterial Evaluation (Table 1) […]
Numbered stars: 1 amine (or outer) side, 2 acyl side, 3 side chain; on linkers, the order of the positions; unused ones are H or OH. Square brackets hold non-standard residues; d marks the D form. Peptide text beside a SMILES is read from it. X5 = N=C1NCC(C(O)[C@@H](N[*:1])C(=O)[*:2])N1; X4 = N=C1NCC(C(O)[C@H](N[*:1])C(=O)[*:2])N1; Cha = N[C@@H](CC1CCCCC1)C(=O)O; dCha = N[C@H](CC1CCCCC1)C(=O)O
Each entry below carries its recorded MIC Enterococcus faecalis (GC 4554).
Numbers only here, please. The scale is µg/mL.

Notebook: CC(c1ccccc1)C1NC(=O)CNC(=O)C(CO)NC(=O)C(C(O)C2CNC(=N)N2C2OC(CO)C(O)C(O)C2O)NC(=O)C(C(O)C2CNC(=N)N2)NC(=O)C(Cc2ccc(OC3OC(COC(=O)OCc4ccccc4)C(OC4OC(CO)C(O)C(O)C4O)C(O)C3O)cc2)NC1=O (stereo not shown) , MIC Enterococcus faecalis (GC 4554) read as 64

---
Notebook: CC(c1ccccc1)C1NC(=O)CNC(=O)C(CO)NC(=O)C(C(O)C2CNC(=N)N2C2OC(CO)C(O)C(O)C2O)NC(=O)C(C(O)C2CNC(=N)N2)NC(=O)C(Cc2ccc(OC3OC(CO)C(OC4OC5COC(Cc6ccc(F)cc6)OC5C(O)C4O)C(O)C3O)cc2)NC1=O (stereo not shown) , MIC Enterococcus faecalis (GC 4554) read as 2

Notebook: N=C1NCC(C(O)[C@@H]2NC(=O)[C@@H](CC3CCCCC3)NC(=O)[C@H](CC3CCCCC3)NC(=O)CNC(=O)[C@H](CO)NC(=O)[C@@H](C(O)C3CNC(=N)N3)NC2=O)N1 (stereo partly shown) [Example 58] (cyclo([Cha][dCha][X4][X5]SG)) , MIC Enterococcus faecalis (GC 4554) read as 64

Notebook: CCCCCC1OCC2OC(OC3C(CO)OC(Oc4ccc(CC5NC(=O)C(C(C)c6ccccc6)NC(=O)CNC(=O)C(CO)NC(=O)C(C(O)C6CNC(=N)N6C6OC(CO)C(O)C(O)C6O)NC(=O)C(C(O)C6CNC(=N)N6)NC5=O)cc4)C(O)C3O)C(O)C(O)C2O1 (stereo not shown) , MIC Enterococcus faecalis (GC 4554) read as 2

Notebook: COc1cc(C2OCC3OC(OC4C(CO)OC(Oc5ccc(CC6NC(=O)C(C(C)c7ccccc7)NC(=O)CNC(=O)C(CO)NC(=O)C(C(O)C7CNC(=N)N7C7OC(CO)C(O)C(O)C7O)NC(=O)C(C(O)C7CNC(=N)N7)NC6=O)cc5)C(O)C4O)C(O)C(O)C3O2)ccc1[N+](=O)[O-] (stereo not shown) , MIC Enterococcus faecalis (GC 4554) read as 8

====

Test system: Staphylococcus sp.
Experiment Notes: in vitro antibacterial evaluation, MIC by broth dilution
Assay type: cell-based
Assay Context: broth dilution, 18 hours at 35° C.
Quantity Kind: MIC Coagulase Negative Staphylococcus (GC 4547)

The following compounds have reported results that may help.
Notebook: CC(c1ccccc1)C1NC(=O)CNC(=O)C(CO)NC(=O)C(C(O)C2CNC(=N)N2C2OC(CO)C(O)C(O)C2O)NC(=O)C(C(O)C2CNC(=N)N2)NC(=O)C(Cc2ccc(OC3OC(CO)C(OC4OC5COC6(OC5C(O)C4O)C4CC5CC(C4)CC6C5)C(O)C3O)cc2)NC1=O (stereo not shown) , MIC Coagulase Negative Staphylococcus (GC 4547) read as 0.5 to 1 µg/mL

Notebook: CC(c1ccccc1)C1NC(=O)CNC(=O)C(CO)NC(=O)C(C(O)C2CNC(=N)N2C2OC(CO)C(O)C(O)C2O)NC(=O)C(C(O)C2CNC(=N)N2)NC(=O)C(Cc2ccc(OC3OC(CO)C(OC4OC(CO)C(O)C(O)C4OCc4ccc(OCc5ccccc5)cc4)C(O)C3O)cc2)NC1=O (stereo not shown) [Example 231b] , MIC Coagulase Negative Staphylococcus (GC 4547) read as 4 to 32 µg/mL

Notebook: N=C1NCC(C(O)C2NC(=O)C(Cc3ccc(OC4OC(CO)C(OC5OC6COC7(OC6C(O)C5O)C5CC6CC(C5)CC7C6)C(O)C4O)cc3)NC(=O)C(CC3CCCCC3)NC(=O)CNC(=O)C(CO)NC(=O)C(C(O)C3CNC(=N)N3C3OC(CO)C(O)C(O)C3O)NC2=O)N1 (stereo not shown) , MIC Coagulase Negative Staphylococcus (GC 4547) read as 0.5 to 2 µg/mL

---
Notebook: CC(c1ccc(F)cc1)C1NC(=O)CNC(=O)C(CO)NC(=O)C(C(O)C2CNC(=N)N2C2OC(CO)C(O)C(O)C2O)NC(=O)C(C(O)C2CNC(=N)N2)NC(=O)C(Cc2ccc(OC3OC(CO)C(OC4OC(CO)C(O)C(O)C4O)C(O)C3O)cc2)NC1=O (stereo not shown) [Example 261a] , MIC Coagulase Negative Staphylococcus (GC 4547) read as >64 µg/mL
